Kindly supply the reported MIC90 values for the records listed here.
Tested on: Pseudomonas aeruginosa
Assay: microbe, parasite or virus in culture
Type: functional
Conditions: isolate CAN-ICU 62308, 24 h
Description: Antibacterial activity against Pseudomonas aeruginosa isolate CAN-ICU 62308 after 24 hrs by macrobroth dilution method
Just the number please, in µg/mL, no unit attached.

[ask] GET /values?readout=MIC90&system=Pseudomonas aeruginosa&item= CC(C)(C)CC(C)(C)c1ccc(OCCCCc2cn(C[C@H]3O[C@@H](O[C@@H]4[C@@H](O)[C@H](N)C[C@H](N)[C@H]4O[C@H]4O[C@H](CN)[C@@H](O)[C@H](O)[C@H]4N)[C@H](O)[C@@H]3O[C@H]3O[C@@H](CN)[C@@H](O)[C@H](O)[C@H]3N)nn2)c(Cc2ccc(Cl)cc2Cl)c1
[reply] 64

[ask] Lookup: MIC90 / Pseudomonas aeruginosa / Cc1cc(O)cc(C)c1Cl
[reply] 256

[ask] Query the reported MIC90 for Pseudomonas aeruginosa; item: NC[C@@H]1O[C@H](O[C@H]2[C@@H](O)[C@H](O[C@@H]3[C@@H](O)[C@H](N)C[C@H](N)[C@H]3O[C@H]3O[C@H](CN)[C@@H](O)[C@H](O)[C@H]3N)O[C@@H]2CO)[C@H](N)[C@@H](O)[C@@H]1O.O.O=S(=O)(O)O [NEOMYCIN TRISULFATE HYDRATE]
[reply] 256

[ask] Record lookup: for Pseudomonas aeruginosa, what MIC90 belongs to Oc1cc(Cl)ccc1Oc1ccc(Cl)cc1Cl ?
[reply] 64

[ask] Form: Entry = Cc1cc(OCCCCc2cn(C[C@H]3O[C@@H](O[C@@H]4[C@@H](O)[C@H](N)C[C@H](N)[C@H]4O[C@H]4O[C@H](CN)[C@@H](O)[C@H](O)[C@H]4N)[C@H](O)[C@@H]3O[C@H]3O[C@@H](CN)[C@@H](O)[C@H](O)[C@H]3N)nn2)cc(C)c1Cl | System = Pseudomonas aeruginosa | MIC90 = ____
[reply] 256

[ask] # returns recorded MIC90 (system: Pseudomonas aeruginosa) for CC(C)(C)CC(C)(C)c1ccc(OCc2cn(C[C@H]3O[C@@H](O[C@@H]4[C@@H](O)[C@H](N)C[C@H](N)[C@H]4O[C@H]4O[C@H](CN)[C@@H](O)[C@H](O)[C@H]4N)[C@H](O)[C@@H]3O[C@H]3O[C@@H](CN)[C@@H](O)[C@H](O)[C@H]3N)nn2)c(Cc2ccc(Cl)cc2Cl)c1
[reply] 64

[ask] What value of MIC90 on Pseudomonas aeruginosa does Cc1cc(OCc2cn(C[C@H]3O[C@@H](O[C@@H]4[C@@H](O)[C@H](N)C[C@H](N)[C@H]4O[C@H]4O[C@H](CN)[C@@H](O)[C@H](O)[C@H]4N)[C@H](O)[C@@H]3O[C@H]3O[C@@H](CN)[C@@H](O)[C@H](O)[C@H]3N)nn2)cc(C)c1Cl have?
[reply] 256

* * *

System: Streptococcus pneumoniae
Test: microbe, parasite or virus in culture
Type: functional
Settings: ATCC 49619, 24 h
Description: Antibacterial activity against Streptococcus pneumoniae ATCC 49619 after 24 hrs by macrobroth dilution method
READOUT: MIC90 (µg/mL)
Lab book: enter the figure in µg/mL, no units written.

[ask] Data request, read-out MIC90, for CC(C)(C)CC(C)(C)c1ccc(OCCCCc2cn(C[C@H]3O[C@@H](O[C@@H]4[C@@H](O)[C@H](N)C[C@H](N)[C@H]4O[C@H]4O[C@H](CN)[C@@H](O)[C@H](O)[C@H]4N)[C@H](O)[C@@H]3O[C@H]3O[C@@H](CN)[C@@H](O)[C@H](O)[C@H]3N)nn2)c(Cc2ccc(Cl)cc2Cl)c1
[reply] 64

[ask] Report MIC90 for Cc1cc(OCCCCc2cn(C[C@H]3O[C@@H](O[C@@H]4[C@@H](O)[C@H](N)C[C@H](N)[C@H]4O[C@H]4O[C@H](CN)[C@@H](O)[C@H](O)[C@H]4N)[C@H](O)[C@@H]3O[C@H]3O[C@@H](CN)[C@@H](O)[C@H](O)[C@H]3N)nn2)cc(C)c1Cl please.
[reply] 64

[ask] For NC[C@@H]1O[C@H](O[C@H]2[C@@H](O)[C@H](O[C@@H]3[C@@H](O)[C@H](N)C[C@H](N)[C@H]3O[C@H]3O[C@H](CN)[C@@H](O)[C@H](O)[C@H]3N)O[C@@H]2CO)[C@H](N)[C@@H](O)[C@@H]1O.O.O=S(=O)(O)O [NEOMYCIN TRISULFATE HYDRATE] , what is its reported MIC90?
[reply] 32

[ask] For Oc1cc(Cl)ccc1Oc1ccc(Cl)cc1Cl , what is its reported MIC90?
[reply] 128

Provenance of the data: ChEMBL document CHEMBL1949655
